# System: CP266
# testDetails: qHTS profiling for inhibitors of Plasmodium falciparum proliferation (AID 504749); further: nearly all actives have a fitted effect of over 60% in size; further: potency means the concentration at half of the fitted maximal effect
# measurementContext: P. falciparum in erythrocytes, SYBR Green DNA, 72 h; series mostly up to 28.7 µM
Records with an inconclusive call do not appear. Active and inactive are the calls of the source. The call rests on the fitted dose curve; in most records, active means well fitted inhibition curve with a large enough effect; inconclusive means small, poorly fitted or top-dose-only effect; inactive means flat fitted curve, though single readings scatter. Numbered stars: 1 amine (or outer) side, 2 acyl side, 3 side chain; on linkers, the order of the positions; unused ones are H or OH. Bridge positions count the residues as written; N and C are the ends. Square brackets hold non-standard residues; d marks the D form. Peptide text beside a SMILES is read from it. * marks the point of attachment. ξ: configuration not given here. ΔAla(Z-3-ureido) = NC(=O)N/C=C(\N)C(=O)O; X1 = NC1=NCCC(C(N[*:1])C(=O)[*:2])N1; ξβ3hOrn = NCCCC(N)CC(=O)*; Dap = NC[CH](N)C(=O)O
endpoint: Potency

>>> endpointresult("CC(C)C[C@H](NC(=O)[C@@H](Cc1c[nH]c2ccccc12)NC(=O)[C@@H](Cc1ccc(O)cc1)NC(=O)[C@@H](CO)NC(=O)[C@@H](Cc1c[nH]c2ccccc12)NC(=O)C(Cc1cnc[nH]1)NC(=O)C1CCC(=O)N1)C(=O)N[C@@H](CCCN=C(N)N)C(=O)N1CCC[C@@H]1C(=O)NCC(N)=O (some centres undefined)")
"inactive"
>>> endpointresult("CCC(C)C1NC(=O)C(Cc2ccc(O)cc2)NC(=O)C(N)CSSCC(C(=O)N2CCCC2C(=O)NC(CC(C)C)C(=O)NCC(N)=O)NC(=O)C(CC(N)=O)NC(=O)C(CCC(N)=O)NC1=O (centres undefined)")
"inactive"
>>> endpointresult("O=C(OCC1OC(OC(=O)c2cc(O)c(O)c(OC(=O)c3cc(O)c(O)c(O)c3)c2)[C@@H](OC(=O)c2cc(O)c(O)c(OC(=O)c3cc(O)c(O)c(O)c3)c2)C(OC(=O)c2cc(O)c(O)c(OC(=O)c3cc(O)c(O)c(O)c3)c2)C1OC(=O)c1cc(O)c(O)c(OC(=O)c2cc(O)c(O)c(O)c2)c1)c1cc(O)c(O)c(OC(=O)c2cc(O)c(O)c(O)c2)c1 (some centres undefined)")
"3.79 µM (active)"
>>> endpointresult("NCCCC(N)CC(=O)NCC1NC(=O)C(CO)NC(=O)C(N)CNC(=O)C(C2CCN=C(N)N2)NC(=O)/C(=C/NC(N)=O)NC1=O (stereo not drawn) (H-[Dap]S[Dap](ξβ3hOrn)[ΔAla(Z-3-ureido)][X1]; lactam 1-C; configuration not given here)")
"inactive"
